Listed below: pIC50 values for each entry.
Molecular target: Toll-like receptor 4 (Homo sapiens)
Sequence (O00206 whole entry): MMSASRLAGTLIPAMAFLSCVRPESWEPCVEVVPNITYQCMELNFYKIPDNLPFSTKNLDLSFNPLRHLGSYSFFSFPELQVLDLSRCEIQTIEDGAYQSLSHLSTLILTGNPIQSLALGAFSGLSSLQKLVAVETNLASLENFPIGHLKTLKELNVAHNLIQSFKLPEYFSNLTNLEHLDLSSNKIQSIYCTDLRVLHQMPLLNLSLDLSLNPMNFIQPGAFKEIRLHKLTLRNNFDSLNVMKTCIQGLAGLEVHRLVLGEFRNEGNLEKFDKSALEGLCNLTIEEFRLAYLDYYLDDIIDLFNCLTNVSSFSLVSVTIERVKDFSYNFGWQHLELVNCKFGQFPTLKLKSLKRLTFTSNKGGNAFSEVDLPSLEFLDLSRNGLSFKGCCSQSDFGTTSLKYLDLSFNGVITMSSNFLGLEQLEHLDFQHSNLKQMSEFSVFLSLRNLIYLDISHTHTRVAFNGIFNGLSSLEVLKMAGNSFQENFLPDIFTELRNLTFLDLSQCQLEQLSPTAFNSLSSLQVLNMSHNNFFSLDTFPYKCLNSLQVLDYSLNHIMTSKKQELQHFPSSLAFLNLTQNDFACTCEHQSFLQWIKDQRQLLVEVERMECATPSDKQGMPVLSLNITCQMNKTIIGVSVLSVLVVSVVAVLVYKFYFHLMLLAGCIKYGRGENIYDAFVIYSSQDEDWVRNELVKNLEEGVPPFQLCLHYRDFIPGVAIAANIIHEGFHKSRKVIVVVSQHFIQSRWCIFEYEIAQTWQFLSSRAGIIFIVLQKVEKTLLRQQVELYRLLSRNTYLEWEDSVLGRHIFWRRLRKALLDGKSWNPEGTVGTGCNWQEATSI
Experiment: Antagonist activity at human TLR4 expressed in HEK blue cells coexpressing MD-2/CD14 assessed as inhibition of LPS-induced NF-kappaB activation-mediated SEAP production after 24 hrs
Assay type: cell-based
Conditions: read-out: IC50
# pIC50 = -log10(concentration in molar units)

>  <MOLECULE>
OC(CNc1ccc(-c2ccccc2)cc1)COc1cccc2[nH]c3ccccc3c12 (centres undefined)

>  <pIC50>
4.66

$$$$
>  <MOLECULE>
Cc1nn(Cc2ccccc2Cl)c(C)c1CN(C)CC(O)COc1cccc2[nH]c3ccccc3c12 (centres undefined)

>  <pIC50>
4.90

$$$$
>  <MOLECULE>
OC(CNc1ccc2ccccc2c1)COc1cccc2[nH]c3ccccc3c12 (centres undefined)

>  <pIC50>
4.54

$$$$
>  <MOLECULE>
CCCc1ccc(OCCC(O)CN(C)Cc2c(C)nn(Cc3ccccc3Cl)c2C)cc1 (centres undefined)

>  <pIC50>
4.61

$$$$
>  <MOLECULE>
Cc1nn(Cc2ccc(Cl)cc2)c(C)c1CN(C)CC(O)COc1cccc2[nH]c3ccccc3c12 (centres undefined)

>  <pIC50>
4.87

$$$$
>  <MOLECULE>
O=C(c1ccccc1)c1cc(Cl)ccc1NCC(O)COc1cccc2[nH]c3ccccc3c12 (centres undefined)

>  <pIC50>
4.68

$$$$

Req: I would be grateful if you could share the reported pIC50 for Cc1nn(Cc2ccccc2)c(C)c1CN(C)CC(O)COc1cccc2[nH]c3ccccc3c12 (centres undefined) .
Resp: 4.50

Req: Try this molecule next: Cc1nn(Cc2ccccc2Cl)c(C)c1CN(C)CC(O)CCOc1ccc(F)cc1 (centres undefined)
Resp: 4.26

Req: Try this molecule next: Cc1nn(Cc2ccccc2Cl)c(C)c1CN(C)CC(O)CCOc1ccc(C(C)(C)C)cc1 (centres undefined)
Resp: 4.78
